Source: patent US20230091047A1

test: in vitro; assay type: cell-based; details: human, HepG2 or HepG2.117 cells, 3-days incubation (unmarked values), ATPlite; mean value
Quick reference: CC50 at 3 days of the listed items.

CNC(=O)c1cnc(-n2c(NC)nc3c(c2=O)C[C@@H](C)N(C(=O)c2ccc(Cl)c(Cl)c2)C3)cn1; > 50 µM
CC(C)Nc1nc2c(c(=O)n1-c1ccc(C(=O)NC3COC3)cc1)C[C@@H](C)N(C(=O)c1ccc(Cl)c(Cl)c1)C2; > 50 µM
CNC(=O)c1ccc(-n2c(N[C@@H](C)C3CC3)nc3c(c2=O)C[C@@H](C)N(C(=O)c2ccc(Cl)c(Cl)c2)C3)cc1; 26.5 µM
CC(C)Nc1nc2c(c(=O)n1-c1ccc(-n3cccn3)cc1)CCN(C(=O)c1ccc(Cl)c(Cl)c1)C2; > 50 µM
CC(C)Nc1nc2c(c(=O)n1-c1ccc(S(C)(=O)=O)cc1)CCN(C(=O)c1ccc(Cl)c(Cl)n1)C2; > 50 µM

Briefly, CC50 at 3 days measured for CC(C)Nc1nc2c(c(=O)n1-c1ccc(C(=O)NCC(C)(C)C(=O)O)cc1)C[C@@H](C)N(C(=O)c1ccc(Cl)c(Cl)c1)C2 : > 50 µM

CC50 at 3 days reported for this compound CC(C)Nc1nc2c(c(=O)n1-c1ccc(S(C)(=O)=O)cc1)CCN(C(=O)c1ccc3ncn(C)c3c1)C2 : > 50 µM

// field: CC50 at 3 days; key: CCOC(=O)c1ccc(-n2c(NC(CCO)C3CC3)nc3c(c2=O)C[C@@H](C)N(C(=O)c2ccc(Cl)c(Cl)c2)C3)cc1 (stereo partly shown) ; value = > 50 µM

Measured CC50 at 3 days, CC(C)Nc1nc2c(c(=O)n1[C@H]1CC[C@H](C(=O)O)CC1)C[C@@H](C)N(C(=O)c1ccc(Cl)c(Cl)c1)C2 : > 50 µM

compound CCOC(=O)[C@H]1CC[C@@H](n2c(NC(C)C)nc3c(c2=O)C[C@@H](C)N(C(=O)c2ccc(Cl)c(Cl)c2)C3)CC1 , CC50 at 3 days observed: 33.4 µM

// recorded CC50 at 3 days for CC(C)Nc1nc2c(c(=O)n1-c1ccc(Cl)nc1)C[C@@H](C)N(C(=O)c1ccc(Cl)c(Cl)c1)C2 : > 50 µM

The reported CC50 at 3 days of the compound CNC(=O)c1ccc(-n2c(NC(C)C)nc3c(c2=O)CCN(C(=O)c2ccc(Cl)c(Cl)c2)C3)cc1Cl was > 50 µM

Per the record, CC(C)Nc1nc2c(c(=O)n1-c1ccc(S(C)(=O)=O)cc1)CCN(C(=O)C1Cc3ccccc3N1)C2 (stereo not shown) has CC50 at 3 days of > 50 µM
